Where do the numbers come from? From PubChem BioAssay AID434987.

Tested on: M. tuberculosis H37Rv growth inhibition with meropenem
Experiment: dose response, H37Rv, with and without meropenem (AID 434987);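 further: growth over 7 days at 37 °C before Alamar Blue read on day 9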
Conditions: M. tuberculosis H37Rv growth inhibition; measured here: IC50 without meropenem
Measured IC50 of individual entries

Please review the following examples before continuing.
> print(dat)
                                 mol.smiles    result
1         Cc1ccccc1OCC(=O)Nc1ccccc1N1CCOCC1  > 100 µM
2  COC(=O)[C@@]1(Cc2ccc(F)cc2)[C@H]2c3cc(C(=O)N(C)C)n(Cc4ccc(OC)c(OC)c4)c3C[C@H]2CN1C(=O)c1ccccc1  > 100 µM

Now for another entry.
// IC50 lookup, key: CN(C)c1ccc(/C=N/NC(=O)c2cc(-c3ccc4c(c3)OCO4)n[nH]2)cc1
> 100 µM
